Where do the numbers come from? From BindingDB's records for patent US11208411.

Molecular target: Proto-oncogene tyrosine-protein kinase Src (Homo sapiens, UniProt P12931)
Sequence (P12931 2-536 limits assumed): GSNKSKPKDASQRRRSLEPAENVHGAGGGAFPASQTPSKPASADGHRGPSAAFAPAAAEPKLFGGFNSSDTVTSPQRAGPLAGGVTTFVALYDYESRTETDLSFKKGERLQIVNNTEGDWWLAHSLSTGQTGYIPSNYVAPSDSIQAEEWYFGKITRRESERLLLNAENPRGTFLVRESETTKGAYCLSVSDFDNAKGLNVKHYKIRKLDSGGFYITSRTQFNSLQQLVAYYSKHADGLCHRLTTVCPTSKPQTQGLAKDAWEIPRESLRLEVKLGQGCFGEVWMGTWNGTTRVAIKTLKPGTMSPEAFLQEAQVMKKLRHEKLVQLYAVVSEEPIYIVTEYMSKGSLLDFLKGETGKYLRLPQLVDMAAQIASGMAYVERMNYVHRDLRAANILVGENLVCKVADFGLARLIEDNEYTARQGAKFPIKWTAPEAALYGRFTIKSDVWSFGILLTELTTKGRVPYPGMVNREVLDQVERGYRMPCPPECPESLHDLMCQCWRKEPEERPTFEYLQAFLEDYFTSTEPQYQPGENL
Endpoint label: pIC50
pIC50 here: minus log base 10 of the concentration, concentration in moles per litre.

Problem: Form field: reported pIC50 of CC(C)(C)n1nc(Cc2coc3ccccc23)c2c(N)ncnc21 [US11208411, Cmpd LJQ-145]
Result: 5.80
